Items are presented alongside their recorded melting point.

Below: 4 compounds and their reported melting point.
Cc1cc(-c2nn[nH]c2C#N)ccc1-c1nccc(C(F)(F)F)n1 214 to 218 °C
N#Cc1[nH]nnc1-c1cc(Cl)cc(-c2cc3ccccc3s2)c1 231 to 233 °C
N#Cc1[nH]nnc1-c1cccc(/C=C/c2ccc(F)cc2C(F)(F)F)c1 189 to 192 °C
N#Cc1[nH]nnc1-c1cccc(-c2cc3ccccc3o2)n1 230 to 233 °C

Please look at the following compound next.
Exam item: Which melting point is reported for this compound? Cc1cc(/C=C/c2cccc(-c3nn[nH]c3C#N)c2)ccc1F
Marked response: 194 to 196 °C

The values you see were collected from patent US10626095B2.
